Origin of the recorded values: patent US20210403579A1

# target-desc: T1, Human ST2 (human, UniProt Q01638 19-328, limits assumed)
# T1 construct: also called human ST2 protein; Interleukin 1 receptor-like 1
# T1 sequence (looked up): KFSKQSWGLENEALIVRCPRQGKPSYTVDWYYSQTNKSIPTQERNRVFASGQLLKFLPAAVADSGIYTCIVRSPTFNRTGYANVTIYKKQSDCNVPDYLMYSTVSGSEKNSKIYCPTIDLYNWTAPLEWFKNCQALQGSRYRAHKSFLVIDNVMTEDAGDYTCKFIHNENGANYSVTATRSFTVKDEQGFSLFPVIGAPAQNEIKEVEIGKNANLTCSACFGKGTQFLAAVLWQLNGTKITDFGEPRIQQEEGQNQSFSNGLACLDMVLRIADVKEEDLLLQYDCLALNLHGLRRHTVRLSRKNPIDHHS
# run-description: SPR (Carterra), antibody immobilized, ST2 analyte
Classification field: 1 (yes) = kon at or over 200000 M⁻¹ s⁻¹; 0 (no) = kon under 200000 M⁻¹ s⁻¹.

binder	discrete-label
Human ST2 IgG1 Antibody 1 (antibody, V domains shown, IgG1; also called ST2 Antibody 1) VH: QVQLVQSGAEVKKPGSSVKVSCKASGGTFSSYAISWVRQAPGQGLEWMGGIIPIFGTANYAQKFQGRVTITADESTSTAYMELSSLRSEDTAVYYCAKSILGGRIFGGYFDLWGRGTLVTVSS VL: DIVMTQSPLSLPVTPGEPASISCRSSQSLLHSNGYNYLDWYLQKPGQSPQLLIYAASSLQSGVPDRFSGSGSGTDFTLKISRVEAEDVGVYYCMQALQTPPTFGQGTKVEIKR	0 (no)

Reported kon at or above 200000 M⁻¹ s⁻¹? Human ST2 IgG1 Antibody 57 (antibody, V domains shown, IgG1; also called ST2 Antibody 57) VH: QVQLVQSGAEVKKPGASVKVSCKASGYTFTGYYMHWVRQAPGQGLEWMGVINPSGGSTSYAQKFQGRVTMTRDTSTSTVYMELSSLRSEDTAVYYCARGDYYYGSGSDYYYYYGMDVWGQGTLVTVSS VL: DIQMTQSPSSLSASVGDRVTITCRASQGVTSWLAWYQQKPGKAPKLLIYAASTLQSGVPSRFSGSGSGTDFTLTISSLQPEDFATYYCQQANSFPLTFGGGTKVEIKR
1 (yes)

Reported kon at or above 200000 M⁻¹ s⁻¹? Human ST2 IgG1 Antibody 40 (antibody, V domains shown, IgG1; also called ST2 Antibody 40) VH: QVQLVQSGAEVKKPGASVKVSCKASGYTFTSYYIHWVRQAPGQGLEWMGIINPSADTTTYAQQFQGRVTMTRDTSTSTVYMELSSLRSEDTAVYYCARTPGNYGGNSLGYYYYYGMDVWGQGTLVTVSS VL: DIQMTQSPSSLSASVGDRVTITCRASQSVGTWLAWYQQKPGKAPKLLIYAASTLQSGVPSRFSGSGSGTDFTLTISSLQPEDFATYYCQQSYSSPLTFGPGTKVDIKR
0 (no)

Reported kon at or above 200000 M⁻¹ s⁻¹? Human ST2 IgG1 Antibody 31 (antibody, V domains shown, IgG1; also called ST2 Antibody 31) VH: QVQLVQSGAEVKKPGSSVKVSCKASGGTFSTYAFSWVRQAPGQGLEYMGGIIPMFGTANYAQKFQGRVTITADESTSTAYMELSSLRSEDTAVYYCAGERGYGSLDYWGQGTLVTVSS VL: DIQMTQSPSSLSASVGDRVTITCRASQGIGSWLAWYQQKPGKAPKLLIYAASSLQSGVPSRFSGSGSGTDFTLTISSLQPEDFATYYCQQSYTFPYTFGQGTKLEIKR
1 (yes)
